These measurements were taken from patent US20220194999A1.

Recorded Exch II (%) for the following binders
- Experimental Target: T1, HLA-A*02:01 class I complex (conditional p*HLA*02:01, biotinylated heavy chain with beta2-microglobulin) (human, biotinylated heavy chain)
- T1 construct: UV-labile peptide p* is cleaved and exchanged for the test peptide; also called HLA 2.1
- Test Protocol: UV peptide exchange, HLA class I ELISA, % of Pos peptide;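 further: Streptavidin-captured HLA complexes after exchange detected via HRP anti-human B2M antibody, absorbance read, colour scales with intact complex, normalized to exchange control peptide as 100%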
Give the figure together with its unit, number first.

{"Binder": "KLYPVQLWV (also called M131) [TP53_C141Y2 mimic peptide KLYPVQLWV]", "Value Measured": "79.8%"}
{"Binder": "GLAPPQLLI (also called M140) [TP53.H193L mutant peptide GLAPPQLLI]", "Value Measured": "7.2%"}
{"Binder": "RMIHRDLAV (also called M243; ERBB2_V84216) [ERBB2_V842I6 mimic peptide RMIHRDLAV]", "Value Measured": "58.5%"}
{"Binder": "ALNNMFCQL (also called M160) [TP53.K132N mutant peptide ALNNMFCQL]", "Value Measured": "43.1%"}
{"Binder": "YMDCGIHSL (also called M021) [CTNNB1_S33C10 mimic peptide YMDCGIHSL]", "Value Measured": "103%"}
{"Binder": "GLAPPQYLI (also called M150) [TP53.H193Y mutant peptide GLAPPQYLI]", "Value Measured": "13.1%"}
{"Binder": "NLDEYVHNV (also called M112) [SF3B1_R625H6 mimic peptide NLDEYVHNV]", "Value Measured": "88.4%"}
{"Binder": "NMDEYVHNI (also called M115) [SF3B1.R625H13 mimic peptide NMDEYVHNI]", "Value Measured": "63.1%"}
{"Binder": "MIFSKRHWA (also called M010) [CIC.R215W mutant peptide MIFSKRHWA]", "Value Measured": "6.1%"}
{"Binder": "VVPCEPPEV (also called M230) [TP53.Y220C mutant peptide VVPCEPPEV]", "Value Measured": "37.5%"}

Q: Requested read-out: Exch II (%). Entry: GLKDLLNPI (also called M080) [PIK3CA.E453K mutant peptide GLKDLLNPI]
A: 84.9%

Q: Same thing, different binder: CYMYYYSYLI (also called M106) [PTEN.R173C11 mimic peptide CYMYYYSYLI]
A: 4.8%

Q: Same thing, different binder: VMSDAISAL (also called M124; SOX17.S40317) [SOX17.S403I7 mimic peptide VMSDAISAL]
A: 79.5%

Q: Same thing, different binder: YLDSGIHFV (also called M032) [CTNNB1_S37F5 mimic peptide YLDSGIHFV]
A: 109%

Q: Same thing, different binder: KLYPVQLWI (also called M134) [TP53.C141Y12 mimic peptide KLYPVQLWI]
A: 66.4%

Q: Same thing, different binder: QLWVDSTPV (also called M182) [TP53_P152L4 mimic peptide QLWVDSTPV]
A: 95.7%

Q: Same thing, different binder: RLIHRDLAA (also called M240) [ERBB2.V842I mutant peptide RLIHRDLAA]
A: 7.7%

Q: Same thing, different binder: VLSDAISAV (also called M121; SOX17_S40312) [SOX17_S403I2 mimic peptide VLSDAISAV]
A: 90.9%

Q: Same thing, different binder: QLWVDSTPL (also called M180) [TP53.P152L mutant peptide QLWVDSTPL]
A: 88.1%

Q: Same thing, different binder: LLGRNSFEI (also called M222) [TP53_V272M3 mimic peptide LLGRNSFEI]
A: 58%
